- Test system: FLT4
- condition_description: concentration: 1 μM, replicates: in singlicate; n = 1;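 also: KINOMEscan kinase panel screen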
So basically: is %Inh under 20%? Then T. Not under? Then F.

>>> answer_label("c1ccc(-c2n[nH]cc2Nc2ccnc3ccccc23)nc1 [GW694077]")
"T"
>>> answer_label("Cc1occc1-c1ncc(OC[C@@H](N)Cc2c[nH]c3ccccc23)cc1-c1ccc2[nH]nc(C)c2c1.O=C(O)C(F)(F)F [GSK682037]")
"T"

// switching to the query compound
API: query returns whether the compound falls strictly under 20% in %Inh. Query: CN(C)S(=O)(=O)c1cc(-c2ccc3nccc(-c4cccc(S(N)(=O)=O)c4)c3c2)cnc1N [GSK1669921]
T

----------
- Test system: YSK4
- Construct: gene MAP3K19
- condition_description: concentration: 1 μM, replicates: in singlicate; n = 1
I'd be grateful if you could share measured %Inh for these entries.
Give bare numbers, in %.

For orientation, consider the following solved cases.
>>> readout_number("COC(=O)Nc1nc2cc(Oc3ccc(NC(=O)Nc4cc(C(F)(F)F)ccc4F)cn3)ccc2[nH]1.Cl.Cl [GW681170]")
87
>>> readout_number("COc1cc(Nc2ncc3c(C)nc(-c4cc5ccccc5[nH]4)n3n2)cc(OC)c1OC [GW869516]")
0
>>> readout_number("COc1cc2c(cc1OCCN1CCNCC1)ncc1c3ccc(C#N)cc3[nH]c21")
87
>>> readout_number("COc1cc(Nc2nccc(-c3c(-c4cccc(NC(=O)c5c(F)cccc5F)c4)nn4ncccc34)n2)cc(OC)c1OC [GSK327238]")
7

# ---- query molecule ----
Find %Inh (YSK4) for the entry COc1ccc(-c2coc3ccc(-c4nnc(SCc5ccc(OC)c(C(F)(F)F)c5)o4)cc23)cc1
20

----------
- Tested on: PLK4
- condition_description: concentration: 1 μM, replicates: in singlicate; n = 1
quantity_name: %Inh (%)
Give bare numbers, in %.

Use the examples below as a reference point.
>>> readout_number("CCS(=O)(=O)c1ccc(OC)c(Nc2nccc(-c3c(-c4cccc(NC(=O)c5c(F)cccc5F)c4)nn4ncccc34)n2)c1")
16
>>> readout_number("Cl.Cl.NCC(C(=O)Nc1cc(Br)c(-c2ccnc3[nH]ccc23)s1)c1ccccc1 (stereo not drawn)")
0
>>> readout_number("c1ccc(-c2cnc3nccnn23)cc1")
0
>>> readout_number("Cc1ccc(C)c(NC(=O)NC2CCN(c3ccnc(Nc4ccc(F)cc4)n3)C2)c1 (stereo not drawn)")
0
>>> readout_number("Nc1ncc(-c2cccnc2)c2scc(-c3ccc4c(c3)CCN4C(=O)Cc3ccccc3)c12")
15

Required: %Inh, one value per compound below.
1. O=C(Nc1ccccc1F)NC1CCN(c2ccnc(Nc3ccc(F)cc3)n2)CC1
2. COc1ccc(-c2coc3ccc(-c4nnc(SCc5ccc(OC)c(C(F)(F)F)c5)o4)cc23)cc1
3. O=C(Nc1n[nH]c2cc(-c3ccoc3)ccc12)C1CC1
4. Cn1cc(-c2ccc3c(c2)CCN3C(=O)Cc2cccc(Cl)c2)c2c(N)ncnc21
5. C[C@@H]1CC[C@@H](C(=O)Nc2ccccc2)CN1c1cc(-c2ccc3c(N)n[nH]c3c2)nc(N)n1

1. 0
2. 8
3. 10
4. 6
5. 0

// input: 2 compounds below; output: %Inh for each
1. COc1cc(Nc2nccc(-c3c(-c4cccc(NC(=O)c5c(F)cccc5F)c4)nn4ccccc34)n2)cc(OC)c1OC
2. Nc1n[nH]c2cnc(-c3ccccc3)cc12

1: 6; 2: 1

----------
Task for the reader: assign each of the following compounds its reported %Inh.
- Test system: RPS6KA4(Kin.Dom.2-C-terminal)
- condition_description: concentration: 1 μM, replicates: in singlicate; n = 1

Worked cases, answers included:
>>> result("CCn1c(-c2nonc2N)nc2c(C#CC(C)(C)O)nc(OC[C@H](N)c3ccccc3)cc21 [GSK943949]")
"57%"
>>> result("O=C(Nc1n[nH]c2cc(-c3ccoc3)ccc12)C1CC1 [SB-738481]")
"11%"
>>> result("CCS(=O)(=O)c1ccc(OC)c(Nc2nccc(-c3c(-c4cccc(NC(=O)c5c(F)cccc5F)c4)nn4ncccc34)n2)c1 [GSK326180]")
"0%"
>>> result("Cl.Cl.NCC(NC(=O)c1cc(-c2ccccc2)c(-c2ccnc3[nH]ccc23)s1)c1ccccc1 (stereo not drawn) [GSK1321561]")
"0%"
>>> result("Cn1cc(-c2ccc3c(c2)CCN3C(=O)Cc2cccc(F)c2)c2c(N)ncnc21 [GSK2603358]")
"0%"

Next compound, please.
RPS6KA4(Kin.Dom.2-C-terminal) / %Inh / COC(=O)Nc1nc2cc(Oc3ccc(NC(=O)Nc4cc(C(F)(F)F)ccc4F)cn3)ccc2[nH]1.Cl.Cl [GW681170] : value?
0%

----------
- Tested on: RSK4(Kin.Dom.2-C-terminal)
- Construct: gene RPS6KA6
- condition_description: concentration: 1 μM, replicates: in singlicate; n = 1
quantity_name: %Inh (%)
One number for each entry, in %.

>>> readout_number("COc1cc(Nc2ncc3c(C)nc(-c4cc5ccccc5[nH]4)n3n2)cc(OC)c1OC")
3
>>> readout_number("O=C(Nc1ccccc1F)NC1CCN(c2ccnc(Nc3ccc(F)cc3)n2)CC1")
6
>>> readout_number("Nc1ncnc2c1nc(-c1ccccc1)n2-c1ccccc1")
0
>>> readout_number("O=C(Nc1cccc(-c2nn3ccccc3c2-c2ccnc(Nc3cccc(F)c3)n2)c1)c1c(F)ccc(F)c1Cl")
0
>>> readout_number("CC(=O)N1CCN(c2ccc(Nc3nccc(-c4sc(C(C)C)nc4-c4cccc(NS(=O)(=O)c5cccc(Cl)c5)c4)n3)cn2)CC1")
6

Required: %Inh, one value per compound below.
1. CSc1cccc2c(-c3ccncn3)c(-c3ccc(F)cc3)nn12
2. CC(C)c1nc(-c2cccc(NS(=O)(=O)c3c(F)cccc3F)c2F)c(-c2ccnc(Nc3ccc(N4CCOCC4)nc3)n2)s1
3. CN1CCN(CCCNc2nccc(-c3c(-c4ccc(F)cc4)nn4cc(C(F)(F)F)ccc34)n2)CC1
4. O=C(Nc1cccc(Oc2ccc3nc(NC(=O)C4CC4)cn3n2)c1)c1ccccc1C(F)(F)F
5. COc1ccc(Nc2nccc(N3CCC(NC(=O)Nc4cccc(OC)c4)C3)n2)cc1 (stereo not drawn)
6. Cc1ccc(F)c(C(=O)Nc2cccc(-c3nn4ccccc4c3-c3ccnc(Nc4cccc(F)c4)n3)c2)c1F

[90, 39, 80, 0, 24, 13]

Which %Inh value belongs to Fc1ccc(-c2ncn(C3CCNCC3)c2-c2ccnc(Oc3ccc(-c4ccccc4)cc3)n2)cc1 ?
9

----------
- Tested on: CLK4
- condition_description: concentration: 1 μM, replicates: in singlicate; n = 1
quantity_name: %Inh
Could you give the number and then its unit, please?

>>> result("CC(=O)Nc1nc2cnc(Nc3cc(NC(=O)c4cccc(C5(C#N)CC5)c4Cl)ccc3C)nc2s1")
"10%"
>>> result("COc1ccc(-c2coc3ccc(-c4nnc(SCc5ccc(OC)c(C(F)(F)F)c5)o4)cc23)cc1")
"18%"
>>> result("Cc1cccc(NC(=O)Nc2ccc(Oc3ncnc4ccn(C)c34)cc2)c1")
"8%"
>>> result("Cl.Cl.NCC(NC(=O)c1cc(-c2ccccc2)c(-c2ccnc3[nH]ccc23)s1)c1ccccc1 (stereo not shown)")
"19%"
>>> result("O=c1[nH]cc(-c2ccc(N3CCOCC3)cc2)c2sc(-c3cn[nH]c3)cc12")
"89%"
>>> result("C[C@@H]1CC[C@@H](C(=O)Nc2ccccc2)CN1c1cc(-c2ccc3c(N)n[nH]c3c2)nc(N)n1")
"16%"

From here, focus on the item given below.
Quick one: %Inh of COCCOCCOc1cc2ncc3c4ccc(C#N)cc4[nH]c3c2cc1OC ?
76%

----------
- System: MAP3K4
- condition_description: concentration: 1 μM, replicates: in singlicate; n = 1
I would appreciate it if you labelled entries Met when %Inh is 4% or higher, otherwise Not met.

Check out these entries, answers already filled in.
>>> answer_label("Cl.c1ccc(-c2ccc3c(Nc4ccc5[nH]ccc5c4)ccnc3c2)nc1")
"Met"
>>> answer_label("CC(C)c1nc(-c2cccc(NS(=O)(=O)c3c(F)cccc3F)c2F)c(-c2ccnc(Nc3ccc(N4CCOCC4)nc3)n2)s1")
"Met"
>>> answer_label("O=C(O)C(F)(F)F.O=C(O)C(F)(F)F.O=c1[nH]ccc2nc(N[C@@H]3CCCNC3)nc(Nc3ccc(S(=O)(=O)N4CCOCC4)cc3)c12")
"Not met"
>>> answer_label("CCn1c(-c2nonc2N)nc2c(C#CC(C)(C)O)nc(OC[C@H](N)c3ccccc3)cc21")
"Not met"

Now, please, on to the next molecule.
Threshold query (%Inh >= 4%) on Cc1occc1-c1ncc(OC[C@@H](N)Cc2c[nH]c3ccccc23)cc1-c1ccc2[nH]nc(C)c2c1.O=C(O)C(F)(F)F
Met
